# TGT: Sodium-dependent dopamine transporter (Rattus norvegicus)
# METHOD_SUMMARY: Inhibition of [3H]dopamine uptake at dopamine transporter expressed in rat striatal homogenate after 5 mins by scintillation counting analysis relative to (+)-amphetamine
VALUE_TYPE: fold change (FC)
In your answer, state the number alone without any accompanying words.

fold change (FC) reading for NC1C[C@@H]2CCCC[C@H]2CC1(O)c1ccc(O)c(O)c1 (mixture of isomers; form 1) : 2.3

Entry NC1C[C@@H]2CCCC[C@H]2CC1(O)c1ccc(O)c(O)c1 (mixture of isomers; form 2) ; fold change (FC) = 50

Note to self: fold change (FC) recorded for NC1C[C@@H]2CCCC[C@H]2CC1c1ccccc1 (mixture of isomers; 4) was 14

NC1C[C@@H]2CCCC[C@H]2CC1(O)c1ccc(O)c(O)c1 (mixture of isomers; form 3) has a reported fold change (FC) of 1.1

Please fill in: fold change (FC) reported for NC1C[C@@H]2CCCC[C@H]2CC1(O)c1ccc(O)c(O)c1 (mixture of isomers; form 4) = 5.7

The compound listed as NC1C[C@@H]2CCCC[C@H]2CC1c1ccccc1 (mixture of isomers; 2) has a reported fold change (FC) of 8

Value of measured fold change (FC) for the entry NC1C[C@@H]2CCCC[C@H]2CC1c1ccccc1 (mixture of isomers; 3) : 4.8

Sample NC[C@H](O)c1ccc(O)c(O)c1 ; fold change (FC) observed: 100

What the record says about NC1C[C@@H]2CCCC[C@H]2CC1c1ccccc1 (mixture of isomers; 1) : fold change (FC) is 25

###

# TGT: Sodium-dependent dopamine transporter (Rattus norvegicus, UniProt P23977)
# Sequence (P23977 whole entry): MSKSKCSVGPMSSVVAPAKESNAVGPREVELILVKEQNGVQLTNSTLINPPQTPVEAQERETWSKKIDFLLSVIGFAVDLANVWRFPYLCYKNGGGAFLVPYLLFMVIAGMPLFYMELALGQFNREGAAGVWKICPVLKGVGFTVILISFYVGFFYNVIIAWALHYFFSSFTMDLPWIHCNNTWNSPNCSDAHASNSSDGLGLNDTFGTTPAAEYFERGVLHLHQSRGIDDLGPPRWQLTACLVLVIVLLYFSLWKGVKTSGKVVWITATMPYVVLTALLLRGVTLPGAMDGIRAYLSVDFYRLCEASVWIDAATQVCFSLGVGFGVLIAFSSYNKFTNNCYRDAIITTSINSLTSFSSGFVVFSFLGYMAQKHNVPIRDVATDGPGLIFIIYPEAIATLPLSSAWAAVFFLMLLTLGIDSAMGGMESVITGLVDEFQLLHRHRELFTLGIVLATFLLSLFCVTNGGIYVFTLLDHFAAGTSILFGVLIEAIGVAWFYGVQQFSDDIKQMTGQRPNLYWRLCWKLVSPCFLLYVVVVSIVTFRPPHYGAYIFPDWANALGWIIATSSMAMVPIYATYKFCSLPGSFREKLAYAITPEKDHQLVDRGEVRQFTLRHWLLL
# METHOD_SUMMARY: Inhibition of [3H]dopamine uptake at dopamine transporter expressed in rat striatal homogenate after 5 mins by scintillation counting analysis
VALUE_TYPE: IC50 (µM)
Only the number, expressed in µM, is required.

Given item NC1C[C@@H]2CCCC[C@H]2CC1c1ccccc1 (mixture of isomers; 4) , the value recorded as its IC50 is 7

Value of measured IC50 for the entry NC1C[C@@H]2CCCC[C@H]2CC1c1ccccc1 (mixture of isomers; 2) : 12

// recorded IC50 for NC1C[C@@H]2CCCC[C@H]2CC1c1ccccc1 (mixture of isomers; 3) : 20

Measured IC50 of NC1C[C@@H]2CCCC[C@H]2CC1c1ccccc1 (mixture of isomers; 1) : 3.8

###

# Organism: Rattus norvegicus
# METHOD_SUMMARY: Inhibition of [3H]norepinephrine uptake at NET expressed in rat hypothalamic homogenate containing synaptosomes after 5 mins by scintillation counting analysis relative to (+)-amphetamine
# Format: subcellular
# CONDITIONS_USED: Brain
VALUE_TYPE: fold change (FC)
// return a plain number; no unit text

fold change (FC) reported for this compound NC1C[C@@H]2CCCC[C@H]2CC1c1ccccc1 (mixture of isomers; 1) : 30

Summary for this compound, NC1C[C@@H]2CCCC[C@H]2CC1(O)c1ccc(O)c(O)c1 (mixture of isomers; form 1) : fold change (FC) is 4.4

Short answer for NC1C[C@@H]2CCCC[C@H]2CC1(O)c1ccc(O)c(O)c1 (mixture of isomers; form 4) : fold change (FC) was 2

Lab book: fold change (FC) of NC1C[C@@H]2CCCC[C@H]2CC1(O)c1ccc(O)c(O)c1 (mixture of isomers; form 2) noted as 8.9

Input NC1C[C@@H]2CCCC[C@H]2CC1c1ccccc1 (mixture of isomers; 3) . Output fold change (FC): 2.2

Memo: NC[C@H](O)c1ccc(O)c(O)c1 , reported fold change (FC): 100

// recorded fold change (FC) for NC1C[C@@H]2CCCC[C@H]2CC1c1ccccc1 (mixture of isomers; 4) : 3.6

Entry NC1C[C@@H]2CCCC[C@H]2CC1(O)c1ccc(O)c(O)c1 (mixture of isomers; form 3) , fold change (FC) reported as 0.03

Reported fold change (FC) of NC1C[C@@H]2CCCC[C@H]2CC1c1ccccc1 (mixture of isomers; 2) : 1.1
